target: T1, human EphA5 (Homo sapiens, UniProt P54756); test: Selectivity ELISA of humanized antibodies for human Eph receptor; type: binding; details: coated protein 1 nM
T1 construct: a protein of the extracellular region of each human Eph receptor fused with the SEAP protein and the His tag; made in house; host or cells: Expi293F cells (culture supernatant)
T1 sequence (P54756 25-573 limits assumed): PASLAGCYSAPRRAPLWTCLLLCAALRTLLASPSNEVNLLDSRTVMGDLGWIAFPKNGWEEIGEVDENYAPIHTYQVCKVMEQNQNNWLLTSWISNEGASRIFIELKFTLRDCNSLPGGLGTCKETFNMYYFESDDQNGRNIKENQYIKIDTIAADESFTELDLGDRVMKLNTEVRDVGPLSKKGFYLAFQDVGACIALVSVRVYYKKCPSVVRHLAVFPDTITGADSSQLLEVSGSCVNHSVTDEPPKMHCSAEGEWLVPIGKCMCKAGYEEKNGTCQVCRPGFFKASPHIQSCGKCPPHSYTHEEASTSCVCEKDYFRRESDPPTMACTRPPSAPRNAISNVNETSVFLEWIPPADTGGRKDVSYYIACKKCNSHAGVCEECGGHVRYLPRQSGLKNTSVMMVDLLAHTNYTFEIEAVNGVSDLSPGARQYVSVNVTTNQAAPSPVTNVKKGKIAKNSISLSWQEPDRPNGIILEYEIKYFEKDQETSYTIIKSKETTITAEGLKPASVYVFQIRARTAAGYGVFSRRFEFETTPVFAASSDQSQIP
MEASUREMENT NAME: hEphA5-SEAP-: absorbance at 450 nm, percentage with respect to hEphA4-SEAP-His as 100% (%)

[[record]]
molecule = "140 (antibody, V domains shown, synthetic humanized antibody heavy chain variable region sequence; synthetic humanized antibody light chain variable region sequence) VH: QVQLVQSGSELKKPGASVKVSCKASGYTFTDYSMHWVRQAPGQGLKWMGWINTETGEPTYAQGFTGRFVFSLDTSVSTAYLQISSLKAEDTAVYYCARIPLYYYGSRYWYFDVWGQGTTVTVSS VL: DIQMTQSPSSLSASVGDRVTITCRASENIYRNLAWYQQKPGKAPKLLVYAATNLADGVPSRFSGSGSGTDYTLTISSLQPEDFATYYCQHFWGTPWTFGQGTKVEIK"
units_of_measure = "%"
reported_value = 5.4


These data points were gathered from patent US10428140B2.
